Biological target: Alpha-2B adrenergic receptor (Homo sapiens)
Sequence (P18089 whole entry): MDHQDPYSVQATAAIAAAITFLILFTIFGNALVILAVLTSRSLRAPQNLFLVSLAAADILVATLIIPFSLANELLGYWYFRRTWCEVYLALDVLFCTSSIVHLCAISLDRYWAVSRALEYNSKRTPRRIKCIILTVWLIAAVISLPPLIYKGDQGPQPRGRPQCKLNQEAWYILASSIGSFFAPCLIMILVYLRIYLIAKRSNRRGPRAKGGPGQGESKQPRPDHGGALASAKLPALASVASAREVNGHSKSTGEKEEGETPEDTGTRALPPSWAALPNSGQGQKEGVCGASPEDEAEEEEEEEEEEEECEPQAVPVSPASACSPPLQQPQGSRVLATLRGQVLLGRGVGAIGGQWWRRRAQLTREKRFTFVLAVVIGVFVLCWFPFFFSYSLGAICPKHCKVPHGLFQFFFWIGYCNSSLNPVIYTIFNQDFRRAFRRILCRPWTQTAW
pKi: −log10 of the molar value.
Outcome label depends on pKi relative to 6: at/above gives fulfilled, below gives not fulfilled.

Would you say CC(Oc1c(-c2ccccc2)cccc1-c1ccccc1)C1=NCCN1 (stereo not drawn) shows pKi at minimum 6?
not fulfilled

Is reported pKi greater than or equal to 6 here: CC(Oc1ccccc1CC1CC1)C1=NCCN1 (stereo not drawn)
fulfilled

Tell me whether pKi is at least 6 here: CC(Oc1ccccc1C=O)C1=NCCN1 (stereo not drawn)
not fulfilled

Evaluate CC(Oc1ccccc1C(F)(F)F)C1=NCCN1 (stereo not drawn) : pKi at minimum 6?
not fulfilled

Is pKi at least 6? Consider CC(=O)c1ccccc1OC(C)C1=NCCN1 (stereo not drawn)
not fulfilled

Continuing:
Hi team, for C=CCc1cccc(CC=C)c1OC(C)C1=NCCN1 (stereo not drawn) , is the recorded pKi at or above 6?
fulfilled

Given the entry CC(Oc1ccccc1Cl)C1=NCCN1 (stereo not drawn) , answer whether its pKi meets or surpasses 6.
fulfilled

Quick check, pKi >= 6? Cc1cccc(C)c1OC(C)C1=NCCN1 (stereo not drawn)
fulfilled

For this compound, is measured pKi 6 or higher? CC(Oc1ccccc1Br)C1=NCCN1 (stereo not drawn)
fulfilled

// inclusive: pKi at least 6? input: CC(Oc1c(Cl)cccc1Cl)C1=NCCN1 (stereo not drawn)
fulfilled

Answer whether pKi of CCc1ccccc1OC(C)C1=NCCN1 (stereo not drawn) is greater than or equal to 6.
fulfilled
